system: T1, human neuropeptide Y2 receptor (human, UniProt P49146 1-381)
T1 sequence (looked up): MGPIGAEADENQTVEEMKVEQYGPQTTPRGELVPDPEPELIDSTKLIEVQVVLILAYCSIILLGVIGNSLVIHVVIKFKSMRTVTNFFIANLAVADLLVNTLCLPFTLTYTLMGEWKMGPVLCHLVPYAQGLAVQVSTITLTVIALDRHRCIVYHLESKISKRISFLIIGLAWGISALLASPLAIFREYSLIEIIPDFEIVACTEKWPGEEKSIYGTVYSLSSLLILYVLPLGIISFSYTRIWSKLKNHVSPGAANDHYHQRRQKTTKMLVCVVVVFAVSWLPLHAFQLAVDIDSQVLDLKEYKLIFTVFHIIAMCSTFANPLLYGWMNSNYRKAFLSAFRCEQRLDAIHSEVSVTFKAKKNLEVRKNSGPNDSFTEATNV
test_description: cell-based or functional assay
*1 amine or outer side, *2 acyl side, *3 side chain or, on linkers, in order; H or OH if unused. Where no end group is shown, it is not given here. Side-chain parts run from the residue outwards. [ ]: non-standard residue; d: D form. The star is where a group is joined. C20 diacid = O=C(O)CCCCCCCCCCCCCCCCCCC(=O)*; γGlu = O=C(O)[C@H](CCC(=O)[*:2])N[*:1]; εLys = N[C@@H](CCCCN[*:1])C(=O)[*:2]; TRX = not defined here; Aib = CC(C)(N)C(=O)O
Attribute: EC50, CreLuc reporter, 0.5% hP
value_type: EC50, CreLuc reporter, 0.5% hP (nM)

binder="Y[Aib]EGTFTSDYSI[Aib]LEKQAQ[Aib]AFVRHLINK([γGlu-γGlu-γGlu-γGlu-γGlu-γGlu-TRX-C20 diacid])[Aib]TRQRY-NH2 (reading uncertain) [Compound 133]" unit_label=nM assay_value=44.9
binder="YXEGTFTSDLSIXLEKQAQXAFVRHLLNKXTRQRY (Aib at 2, 13, 20, 30; Lys29 epsilon-amino: C20DA-gGlu-gGlu-gGlu-gGlu-gGlu-gGlu-eLys; C-terminal amide) [Compound 115]" unit_label=nM assay_value=10.1
binder="YXEGTFTSDYSIXLDKQAQXEFVRHLINKXTRQRY (Aib at 2, 13, 20, 30; Lys29 epsilon-amino: C18DA-gGlu-gGlu-gGlu-gGlu-gGlu-gGlu-eLys; C-terminal amide) [Compound 131]" unit_label=nM assay_value=17.5
binder="YXEGTFTSDYSIXLEKQRQXAFVRHLINKXTRQRY (Aib at 2, 13, 20, 30; Lys29 epsilon-amino: C18DA-gGlu-gGlu-gGlu-gGlu-gGlu-gGlu-eLys; C-terminal amide) [Compound 91]" unit_label=nM assay_value=9.7
binder="Y[Aib]EGTFTSDYSI[Aib]LDEQAQ[Aib]AFVRHLINK([εLys-εLys-γGlu-γGlu-γGlu-γGlu-γGlu-C20 diacid])[Aib]TRQRY-NH2 [Compound 155]" unit_label=nM assay_value=6

Origin of values: patent US20250382344A1
